Recorded IC50 for the following compounds
Assay text: Inhibition of [3H]SP binding to guinea pig lung membranes
Square brackets hold non-standard residues; d marks the D form. Peptide text beside a SMILES is read from it. * marks the point of attachment. Boc = CC(C)(C)OC(=O)*; OBn = c1ccc(CO*)cc1; For = O=C*

The recorded IC50 for C[C@@H](O)[C@H](NC(=O)CN)C(=O)N[C@H](Cc1cn(C=O)c2ccccc12)C(=O)N[C@@H](Cc1ccccc1)C(=O)N(C)Cc1ccccc1 is 230 nM

The recorded IC50 for CC(C)(C)OC(=O)N[C@@H](CCC(N)=O)C(=O)N[C@H](Cc1cn(C=O)c2ccccc12)C(=O)N[C@@H](Cc1ccccc1)C(=O)CCc1ccccc1 is 430 nM

The recorded IC50 for CN(Cc1ccccc1)C(=O)[C@H](Cc1ccccc1)NC(=O)[C@@H](Cc1cn(C=O)c2ccccc12)NC(=O)[C@H](CCC(N)=O)NC(=O)OC(C)(C)C is 48 nM

The recorded IC50 for CC(O)C(NC(=O)OC(C)(C)C)C(=O)N[C@H](Cc1cn(C=O)c2ccccc12)C(=O)N[C@@H](Cc1ccccc1)C(=O)N(C)Cc1ccccc1 (stereo partly drawn) is 60 nM

The recorded IC50 for CC(C)(C)OC(=O)N[C@@H](CCC(N)=O)C(=O)N[C@H](Cc1cn(C=O)c2ccccc12)C(=O)N[C@@H](Cc1ccccc1)C(=O)OCc1ccccc1 (Boc-Gln-[dW](For)-Phe-OBn) is 90 nM

====

Recorded log10(IC50) for the following compounds
Assay text: Inhibition of [3H]SP binding to guinea pig lung membranes
Use the decimal logarithm of IC50 (µM).

[
  {
    "Compound": "CC(=O)NC(CCC(=O)N(C)C)C(=O)N[C@H](Cc1cn(C=O)c2ccccc12)C(=O)N[C@@H](Cc1ccccc1)C(=O)N(C)Cc1ccccc1 (some centres not stated)",
    "log10(IC50)": -1.52
  },
  {
    "Compound": "CC(C)(C)OC(=O)N[C@@H](CCC(N)=O)C(=O)N[C@H](Cc1cn(C=O)c2ccccc12)C(=O)N[C@@H](Cc1ccccc1)C(=O)NCc1ccccc1",
    "log10(IC50)": -0.07
  },
  {
    "Compound": "CC(=O)NC(CO)C(=O)N[C@H](Cc1cn(C=O)c2ccccc12)C(=O)N[C@@H](Cc1ccccc1)C(=O)N(C)Cc1ccccc1 (some centres not stated)",
    "log10(IC50)": -1.30
  },
  {
    "Compound": "CC(O)C(NC(=O)N1CCOCC1)C(=O)N[C@H](Cc1cn(C=O)c2ccccc12)C(=O)N[C@@H](Cc1ccccc1)C(=O)N(C)Cc1ccccc1 (some centres not stated)",
    "log10(IC50)": -1.70
  },
  {
    "Compound": "CC(O)C(C(=O)N[C@H](Cc1cn(C=O)c2ccccc12)C(=O)N[C@@H](Cc1ccccc1)C(=O)N(C)Cc1ccccc1)N(C)C(=O)OC(C)(C)C (some centres not stated)",
    "log10(IC50)": -0.54
  }
]

The recorded log10(IC50) for CC(=O)NC(Cc1c[nH]cn1)C(=O)N[C@H](Cc1cn(C=O)c2ccccc12)C(=O)N[C@@H](Cc1ccccc1)C(=O)N(C)Cc1ccccc1 (some centres not stated) is -1.00

The recorded log10(IC50) for CN(C)C(=O)CCC(NC(=O)OC(C)(C)C)C(=O)N[C@H](Cc1cn(C=O)c2ccccc12)C(=O)N[C@@H](Cc1ccccc1)C(=O)N(C)Cc1ccccc1 (some centres not stated) is -1.40
